Test system: IL-6
Assay: In vivo tolerability by IV: serum IL-6 by Luminex
Parameters: species or system C57BL/6J mice
Settings: IV 1.0 mg/kg, 24 h, male C57BL/6J mice N=3, Formulation 001, RNA 331
Method: 6-8 week old, male C57BL/6J mice (N=3) were injected with 1.0 mg*kg/1 of RNA-LNPs encoding for firefly-luciferase by intravenous injection. At 2- and 24-hours post injection, about 40 μL blood was harvested and immediately added to the procoagulant containing tube. Stand for 30 min at room temperature and then centrifuged at 2500 g×10 min to obtain serum. About 15 μL serum samples were aliquoted for cytokine (MCP-1 and IL-6) detection by Luminex (ProcartaPlex Mouse 2-plex, Thermo). […]
measurementType: IL-6 at 24 h (pg/mL)
One number for each entry, in pg/mL.

CCCCCCCCCCC(CCCCCCCC)COC(=O)CCCCCOC(=O)NC(COC(=O)NCCN1CCCC1)C(=O)OCCCCCC(=O)OCC(CCCCCCCC)CCCCCCCCCC (stereo not drawn) | 2.02

Provide IL-6 at 24 h for all items below, preserving their order.
1. CCCCCCCCCCC(CCCCCCCC)COC(=O)CCCCCOC(=O)NC(COC(=O)NCCN1CCCCC1)C(=O)OCCCCCC(=O)OCC(CCCCCCCC)CCCCCCCCCC (stereo not drawn)
2. CCCCCCCC/C=C\CCCCCCCCOC(=O)NC(COC(=O)NCCN1CCCCCC1)C(=O)OCCCCCC(=O)OCC(CCCCCCCC)CCCCCCCCCC (stereo not drawn)
3. CCCCCCCCCCC(CCCCCCCC)COC(=O)CCCCCOC(=O)NC(COC(=O)NCCN1CCCCCC1)C(=O)OCCCCCC(=O)OCC(CCCCCCCC)CCCCCCCCCC (stereo not drawn)

Return:
[1.07, 4.53, 0.639]

Provide IL-6 at 24 h for all items below, preserving their order.
1. CCCCCCCCCCC(CCCCCCCC)COC(=O)CCCCCOC(=O)NC(COC(=O)NCCN(C)C)C(=O)OCCCCCC(=O)OCC(CCCCCCCC)CCCCCCCCCC (stereo not drawn)
2. CCCCCCCCCCC(CCCCCCCC)COC(=O)CCCCCOC(=O)NC(COC(=O)NCCN1CCCCCC1)C(=O)OCCCCCCCC(=O)OC(CCCCCCCC)CCCCCCCC (stereo not drawn)

Return:
0.792
0.947

###

assay: LNP size and polydispersity index (PDI) by dynamic light scattering (Zetasizer); format: physicochemical; conditions: Formulation No. 001, RNA No. 331
Provide the reported PDI of each item.
Numbers only.

CCCCC/C=C\C/C=C\CCCCCCCC(=O)NC(COC(=O)NCCN1CCCCCC1)C(=O)OCCCCCCCC(=O)OC(CCCCCCCC)CCCCCCCC (stereo not shown) | 0.15

Provide PDI for all items below, preserving their order.
1. CCCCC/C=C\C/C=C\CCCCCCCC(=O)N[C@@H](COC(=O)NCCN1CCCCC1)C(=O)OCCCCCCCC(=O)OC(CCCCCCCC)CCCCCCCC
2. CCCCC/C=C\C/C=C\CCCCCCCCOC(=O)C(COC(=O)NCCN1CCCCC1)NC(=O)OCCCCCCCCOC(=O)C(CCCCCC)CCCCCCCC (stereo not shown)
3. CCCCCCCCCCCOC(=O)NC(COC(=O)NCCN1CCCCC1)C(=O)OCCCCCCCC(=O)OC(CCCCCCCC)CCCCCCCC (stereo not shown)
4. CCCCCCCC/C=C\CCCCCCCC(=O)NC(COC(=O)NCCN1CCCCC1)C(=O)OCCCCCC(=O)OCC(CCCCCCCC)CCCCCCCCCC (stereo not shown)
5. CCCCCCCC/C=C\CCCCCCCC(=O)NC(COC(=O)NCCN1CCCCC1)C(=O)OCCCCCCCC(=O)OC(CCCCCCCC)CCCCCCCC (stereo not shown)

Return:
1: 0.09; 2: 0.01; 3: 0.04; 4: 0.02; 5: 0.01
